System: TBK1;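 also: KINOMEscan kinase panel screen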
Conditions: concentration: 1 μM, replicates: in singlicate; n = 1

- compound: "COc1ccc(CSc2nnc(-c3ccc4c(c3)CCO4)o2)cc1"
  unit of measure: "%"
  %Inh: 11
- compound: "CC(=O)c1c(C)c2cnc(Nc3ccc(N4CCNCC4)cn3)nc2n(C2CCCC2)c1=O"
  unit of measure: "%"
  %Inh: 4
- compound: "FC(F)(F)c1ccccc1-c1cc(-c2c[nH]nc2-c2ccccn2)ccn1"
  unit of measure: "%"
  %Inh: 18
- compound: "Nc1nccc(-c2c(-c3ccc(F)cc3)ncn2C2CCN(Cc3ccccc3)CC2)n1"
  unit of measure: "%"
  %Inh: 0
- compound: "c1ccc(-c2ccnc3[nH]ccc23)cc1"
  unit of measure: "%"
  %Inh: 11
- compound: "Cn1cncc1-c1cc2c(Nc3ccc(OCc4ccccc4)cc3)ncnc2cn1"
  unit of measure: "%"
  %Inh: 0
- compound: "Fc1ccc(-c2nn3cccc(F)c3c2-c2ccncc2)cc1"
  unit of measure: "%"
  %Inh: 22
- compound: "COc1cccc(CNC(=O)NC2CCN(c3ccnc(Nc4ccc(F)cc4)n3)C2)c1 (stereo not drawn)"
  unit of measure: "%"
  %Inh: 0
- compound: "CS(=O)(=O)CCNCc1nc(-c2ccc3ncnc(Nc4ccc5c(cnn5Cc5ccccc5)c4)c3c2)cs1.Cl.Cl"
  unit of measure: "%"
  %Inh: 0
